- Experiment Notes: Tmax in dog at 1.29 mg/kg, po measured up to 4 hrs post dose
- Assay type: ADME, organism-based, Canis lupus familiaris
- Cond: in vivo
Measurement Name: Tmax (h)
Numbers only; they are read as h.

Memo: CC1=CCC[C@H]1NC(=O)Nc1ccc(Cl)c(S(=O)(=O)[C@@]2(C)CCOC2)c1O , reported Tmax: 1.1

* * *

- Experiment Notes: Passive permeability in MDCK2-MDR1 cells transduced with BacMam2-BCRP at 3 uM after 90 mins by Transwell assay
- Format: ADME, cell-based, Canis lupus familiaris, MDCK-MDR1
- Cond: dog; read-out: permeability
Papp at 1.5 h, 3 µM reference
Give the value, in units of ×10⁻⁶ cm/s, as a plain number.

Example cases with answers are listed next.
Compound: CC1=CCC[C@H]1NC(=O)Nc1ccc(C#N)c(S(=O)(=O)C(C)(C)C)c1O
Data Value: 9
--
Compound: CC1=CCC[C@H]1NC(=O)Nc1ccc(Cl)c(S(=O)(=O)C2(F)CCOC2)c1O (stereo not given in full)
Data Value: 28.1

Recorded Papp at 1.5 h, 3 µM (compound CC1=CCC[C@H]1NC(=O)Nc1ccc(Cl)c(S(=O)(=O)[C@@]2(C)CCOC2)c1O ): 25.4

Lab note: measured Papp at 1.5 h, 3 µM of CC1=CCC[C@H]1NC(=O)Nc1ccc(Cl)c(S(=O)(=O)C(C)(C)C)c1O was 36.4

# Papp at 1.5 h, 3 µM of CCC1(S(=O)(=O)c2c(Cl)ccc(NC(=O)N[C@@H]3CCC=C3C)c2O)CCOCC1 = 32.4

Noted for CC1=CCC[C@H]1NC(=O)Nc1ccc(C#N)c(S(=O)(=O)C(C)(C)CC(F)(F)F)c1O : its Papp at 1.5 h, 3 µM reads 3

Reported Papp at 1.5 h, 3 µM for CC1=CCC[C@H]1NC(=O)Nc1ccc(Cl)c(S(=O)(=O)C2(F)CCOCC2)c1O was 32.3

// Papp at 1.5 h, 3 µM value for CC1=CCC[C@H]1NC(=O)Nc1ccc(Cl)c(S(=O)(=O)C2CCCOC2)c1O (stereo not given in full) : 26.3

Reported Papp at 1.5 h, 3 µM for CC1=CCC[C@H]1NC(=O)Nc1ccc(Cl)c(S(=O)(=O)[C@@H]2CC[C@@H](O)C2)c1O was 7.2

Just so you know, measured Papp at 1.5 h, 3 µM for CC1=CCC[C@H]1NC(=O)Nc1ccc(Cl)c(S(=O)(=O)C(C)(C)C2CCOCC2)c1O came out at 30.3

Quick note, Papp at 1.5 h, 3 µM for CC1=CCC[C@H]1NC(=O)Nc1ccc(Cl)c(S(=O)(=O)C2(C)CCOCC2)c1O landed at 53.2

# Papp at 1.5 h, 3 µM of CC1=CCC[C@H]1NC(=O)Nc1ccc(Cl)c(S(=O)(=O)C2(CF)CCOCC2)c1O = 21.8

Recorded result, CC1=CCC[C@H]1NC(=O)Nc1ccc(Cl)c(S(=O)(=O)C(C)(C)C2COC2)c1O , Papp at 1.5 h, 3 µM: 29.6

So for CC1=CCC[C@H]1NC(=O)Nc1ccc(Cl)c(S(=O)(=O)C(C)(C)[C@@H]2CCOC2)c1O , the logged Papp at 1.5 h, 3 µM turned out to be 12.7

Lab note: CC1=CCC[C@H]1NC(=O)Nc1ccc(Cl)c(S(=O)(=O)[C@]2(C)CCOC2)c1O gave Papp at 1.5 h, 3 µM of 25.2
